Source: patent US20240368163A1

Measured pIC50, listed per entry.
tested on: MYB; experiment: Splicing RT-qPCR assay, MYB mRNA canonical junction (CJ) and alternative junction (AJ); assay type: cell-based, human; conditions: Homo sapiens, 24 h, decrease in CJ mRNA; A673 or K562 cells, 24 hours treatment, RT-qPCR; read-out: MYB CJ IC50
pIC50: −log10 of the molar value.

compound="c1nc2c(-c3cn[nH]c3)ccc(-c3ccc(N4CC5(CCCNC5)C4)nn3)c2s1 [Compound 187]" system=MYB result_value="< 5.00"
compound="c1n[nH]cc1-c1ccc(-c2ccc(N[C@@H]3C[C@H]4CCC[C@@H](C3)N4)nn2)c2[nH]ncc12 [Compound 294]" system=MYB result_value="6.00 to 7.00"
compound="CN(c1ccc(-c2ccc(-n3cccn3)c3cc[nH]c23)nn1)[C@@H]1C[C@H]2CC[C@@H](C1)N2 [Compound 113]" system=MYB result_value="< 5.00"

From here, focus on the item given below.
Q: Determine from records and report pIC50 for CN(c1ncc(-c2ccc(-c3cn[nH]c3)c3ncsc23)nn1)C1C[C@H]2CCC[C@H](C1)N2 (stereo partly shown) [Compound 421]
A: 6.00 to 7.00

====

system: Target C; test: Splicing RT-qPCR panel, Target C canonical junction (CJ) mRNA; assay type: cell-based, human; settings: Homo sapiens, RT-qPCR panel, canonical junction mRNA; compound concentration having 50% response in CJ decrease; read-out: Target C IC50 (decrease in CJ mRNA levels)
pIC50: −log10 of the molar value.
PARAMETER: pIC50

compound=CN(c1cnc(-c2cc(F)c(-c3cn[nH]c3)c3cn[nH]c23)nn1)[C@@H]1C[C@H]2CC[C@@H](C1)N2 system="Target C" result_value="6.00 to 7.00"
compound=c1cnn(-c2ccc(-c3cnc(N4CCNC5(CC5)C4)nn3)c3cn[nH]c23)c1 system="Target C" result_value="< 5.00"
compound=CN(c1ccc(-c2ccc(-c3cnn(C)c3)c3cn[nH]c23)nn1)C1CCNCC1 system="Target C" result_value="< 5.00"
compound=CN1C[C@@H]2[C@H](C1)[C@H]2N(C)c1ccc(-c2ccc(-c3cn[nH]c3)c3cn[nH]c23)nn1 system="Target C" result_value="< 5.00"
compound=c1n[nH]cc1-c1ccc(-c2ccc(N3CCC4(CCNC4)CC3)nn2)c2[nH]ncc12 system="Target C" result_value="< 5.00"

Q: Please list pIC50 recorded for the compound CC(C)(C)C1CN(c2ncc(-c3ccc(-c4cn[nH]c4)c4ncsc34)nn2)CCN1 (stereo not shown)
A: 6.00 to 7.00

Q: Please supply the value of reported pIC50 for the item CN(c1ccc(-c2ccc(-c3cn[nH]c3)c3ncsc23)nn1)[C@H]1[C@@H]2CNC[C@@H]21
A: < 5.00

====

tested on: HTT; assay: Splicing RT-qPCR assay, HTT mRNA canonical junction (CJ) and alternative junction (AJ); type: cell-based, human; settings: Homo sapiens, RT-qPCR panel, canonical junction mRNA; compound concentration having 50% response in CJ decrease; read-out: HTT IC50 (decrease in CJ mRNA levels)
IC50 by entry:

Record excerpt, results attached:
compound="c1cnn(-c2ccc(-c3ccc(O[C@@H]4C[C@H]5CC[C@@H](C4)N5)nn3)c3scnc23)c1 [Compound 334]" system=HTT result_value="100 to 1000 nM"
compound="c1nc2c(-c3cn[nH]c3)ccc(-c3ccc(N[C@@H]4C[C@H]5CCC[C@@H](C4)N5)nn3)c2s1 [Compound 215]" system=HTT result_value="< 100 nM"
compound="c1nc2c(-c3cn[nH]c3)ccc(-c3ccc(N[C@@H]4C[C@H]5CC[C@@H](C4)N5)nn3)c2s1 [Compound 202]" system=HTT result_value="< 100 nM"

Now look at this one.
Q: Answer with the recorded IC50 of Cc1cc(-c2ccc(-c3cnc(N(C)[C@@H]4C[C@H]5CCC[C@@H](C4)N5)nn3)c3scnc23)sn1 [Compound 580] only.
A: < 100 nM

====

test system: Target C; assay: HiBiT protein abundance assay, Target C; assay type: cell-based, human; settings: Homo sapiens, K562, 24 h, Table 13A, modified K562 cells
IC50: recorded values

Study these solved cases before continuing.
molecule=CN(c1ccc(-c2ccc(-c3ccn(C)c(=O)c3)c3scnc23)nn1)C1CC(C)(C)NC(C)(C)C1 result_value="> 10000 nM"
molecule=c1n[nH]cc1-c1ccc(-c2ccc(N3CCC4(CC3)CNC4)nn2)c2[nH]ncc12 result_value="> 10000 nM"
molecule=CN(c1ccc(-c2cc(F)c(-c3cn[nH]c3)c3cn[nH]c23)nn1)[C@@H]1C[C@H]2CC[C@@H](C1)N2 result_value="100 to 1000 nM"
molecule="c1nc2c(-c3cn[nH]c3)ccc(-c3ccc(N4CCCC5(CCNC5)C4)nn3)c2s1 (centres unmarked)" result_value="> 10000 nM"
molecule=CCN(c1ccc(-c2ccc(-c3cn[nH]c3)c3ncsc23)nn1)C1CC(C)(C)NC(C)(C)C1 result_value="1000 to 10000 nM"
molecule="CN1CCN(c2ncc(-c3ccc(-c4cn[nH]c4)c4ncsc34)nn2)CC1C1CC1 (centres unmarked)" result_value="100 to 1000 nM"
molecule=CN(c1ccc(-c2ccc(-c3cn[nH]c3)c3cn[nH]c23)nn1)[C@H]1[C@@H]2CNC[C@@H]21 result_value="> 10000 nM"
molecule=c1cnn(-c2ccc(-c3ccc(N[C@@H]4C[C@H]5CC[C@@H](C4)N5)nn3)c3scnc23)c1 result_value="100 to 1000 nM"

Q: Specify measured IC50 for c1cnn(-c2ccc(-c3ccc(N[C@@H]4C[C@H]5CC[C@@H](C4)N5)nn3)c3[nH]ncc23)c1 .
A: < 100 nM

Q: Answer with the recorded IC50 of c1n[nH]cc1-c1ccc(-c2ccc(N3CC[C@@]45CCN[C@@H]4CC[C@@H]35)nn2)c2[nH]ncc12 only.
A: > 10000 nM

====

test system: MYB; assay: HiBiT protein abundance assay, MYB; assay type: cell-based, human; conditions: Homo sapiens, K562, 24 h, Table 13B, modified K562 cells
pIC50: −log10 of the molar value.
PARAMETER: pIC50

Known results for molecules:
molecule="COc1nc(-c2ccc(N[C@@H]3C[C@H]4CC[C@@H](C3)N4)nn2)ccc1-c1cn(C)nn1 [Compound 944]" result_value="6.00 to 7.00"
molecule="COc1nc(-c2ccc(OC3CC(C)(C)NC(C)(C)C3)nc2)ccc1-c1cnn(C)n1 [Compound 992]" result_value="5.00 to 6.00"
molecule="CNc1nc(-c2ccc(N(C)[C@@H]3C[C@H]4CC[C@@H](C3)N4)nn2)ccc1-c1cn[nH]c1 [Compound 936]" result_value="6.00 to 7.00"
molecule="CN(c1ccc(-c2ccc(-c3cn[nH]c3)c(Cl)n2)nn1)[C@@H]1C[C@H]2CC[C@@H](C1)N2 [Compound 923]" result_value="6.00 to 7.00"
molecule="COc1nc(-c2ccc(N(C)C3CC(C)(C)NC(C)(C)C3)nn2)ccc1-c1cn[nH]c1 [Compound 919]" result_value="6.00 to 7.00"

Q: Return value of pIC50 for input COc1nc(-c2ccc(N(C)[C@@H]3C[C@H]4CC[C@@H](C3)N4)nn2)ccc1-c1cn[nH]c1 [Compound 906] , no commentary.
A: > 7.00

Q: # return recorded pIC50 for input CN(c1ccc(-c2ccc(-c3cn[nH]c3)cn2)nn1)[C@@H]1C[C@H]2CC[C@@H](C1)N2 [Compound 915]
A: 5.00 to 6.00

====

Measured IC50, listed per entry.
system: HTT; test: Splicing RT-qPCR assay, HTT mRNA canonical junction (CJ) and alternative junction (AJ); assay type: cell-based, human; settings: Homo sapiens, RT-qPCR panel, canonical junction mRNA; compound concentration having 50% response in CJ decrease; read-out: HTT IC50 (decrease in CJ mRNA levels)

Previously resolved entries follow.
molecule=CN(c1ccc(-c2ccc(-c3ccc(=O)n(C)c3)c3cn[nH]c23)nn1)[C@@H]1C[C@H]2CC[C@@H](C1)N2 result_value="1000 to 10000 nM"
molecule=CC1(C)CC(N(c2ccc(-c3ccc(-c4cn[nH]c4)c4ncsc34)nn2)C2CC2)CC(C)(C)N1 result_value="100 to 1000 nM"
molecule=Cc1ncc(-c2ccc(-c3ccc(N(C)C4CC(C)(C)NC(C)(C)C4)nn3)c3scnc23)o1 result_value="100 to 1000 nM"
molecule="CNC1CCN(c2ncc(-c3ccc(-n4cccn4)c4[nH]ncc34)nn2)C1 (centres unmarked)" result_value="1000 to 10000 nM"
molecule=C[C@H]1CN(c2ncc(-c3ccc(-c4cn[nH]c4)c4ncsc34)nn2)C[C@@H](C2CC2)N1 result_value="100 to 1000 nM"

Q: Supply IC50 value. Item: c1cnn(-c2ccc(-c3cnc(N4CCC(NC5CC5)C4)nn3)c3cn[nH]c23)c1 (centres unmarked)
A: 1000 to 10000 nM

Q: Quote IC50 reported for c1n[nH]cc1-c1ccc(-c2ccc(N3CC[C@@]45CCN[C@@H]4CC[C@@H]35)nn2)c2[nH]ncc12 please.
A: > 10000 nM

Q: Look up and state reported IC50 for CN(C)C1CCN(c2ncc(-c3ccc(-c4cn[nH]c4)c4ncsc34)nn2)C1 (centres unmarked)
A: 100 to 1000 nM
